These entries and their values trace back to patent US20260193326A1.

Biological target: AAV8 (adeno-associated virus serotype 8)
Experiment: SPR, AAV on CM5 chip
recorded_metric: koff (s⁻¹)
Give the quantity in s⁻¹, number only.

// koff lookup, key: A4-C7 (bispecific antibody) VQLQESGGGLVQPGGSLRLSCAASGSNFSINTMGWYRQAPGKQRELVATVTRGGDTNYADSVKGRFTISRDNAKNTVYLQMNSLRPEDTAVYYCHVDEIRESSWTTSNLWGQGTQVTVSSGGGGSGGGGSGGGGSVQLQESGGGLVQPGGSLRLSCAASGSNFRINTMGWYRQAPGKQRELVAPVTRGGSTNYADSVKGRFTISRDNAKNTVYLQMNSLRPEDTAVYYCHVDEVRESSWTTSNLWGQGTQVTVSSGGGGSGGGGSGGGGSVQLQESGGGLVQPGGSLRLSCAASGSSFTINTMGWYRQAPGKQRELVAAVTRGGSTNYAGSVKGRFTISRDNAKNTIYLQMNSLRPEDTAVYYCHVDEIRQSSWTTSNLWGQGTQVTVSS
0.00047
